Target: hpol κ (Homo sapiens)
Sequence (Q9UBT6 19-526): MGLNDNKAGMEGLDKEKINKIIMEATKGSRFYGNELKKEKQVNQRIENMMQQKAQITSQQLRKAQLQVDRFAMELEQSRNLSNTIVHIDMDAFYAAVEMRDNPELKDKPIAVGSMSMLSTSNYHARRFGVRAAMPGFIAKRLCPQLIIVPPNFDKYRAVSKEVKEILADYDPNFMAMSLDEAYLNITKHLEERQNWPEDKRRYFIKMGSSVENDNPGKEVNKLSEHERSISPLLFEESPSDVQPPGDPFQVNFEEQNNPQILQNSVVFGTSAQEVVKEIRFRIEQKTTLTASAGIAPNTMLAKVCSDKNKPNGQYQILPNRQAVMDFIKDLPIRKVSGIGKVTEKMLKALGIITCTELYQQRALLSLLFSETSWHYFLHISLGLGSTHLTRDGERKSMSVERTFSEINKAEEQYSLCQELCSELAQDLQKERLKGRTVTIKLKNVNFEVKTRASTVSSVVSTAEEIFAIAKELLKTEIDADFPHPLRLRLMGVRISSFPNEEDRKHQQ
Assay: Fluorescence-based (TAMRA/BHQ strand displacement) DNA polymerase activity assay
Details: read-out: % Activity Mean (hpol κ activity)
reported.endpoint: activity at 40 µM (%)

1. COc1ccc2c(c1)c(/C=N/NC(=N)N)cn2Cc1ccc2ccccc2c1 ... 94
2. COc1ccc2c(c1)c(C=C1C(=O)NC(=S)NC1=O)cn2C(=O)c1ccc2ccccc2c1 ... 92.9
3. N#Cc1ccc(Cn2cc(C=C3C(=O)NC(=O)NC3=O)c3cccnc32)cc1 ... 88.8
4. Cc1c(C=C2C(=O)NC(=O)NC2=O)c2cc(Cl)ccc2n1Cc1cccc2ccccc12 ... 96.6
5. Cc1c(C=C2C(=O)NC(=O)NC2=O)c2ccccc2n1C(=O)c1cccc2ccccc12 ... 107
6. N=C(N)N/N=C/c1cn(Cc2cccc3ccccc23)c2ccc(Cl)cc12 ... 64
7. O=C1NC(=S)NC(=O)C1=Cc1cn(C(=O)c2cccc3ccccc23)c2ccccc12 ... 83.3
8. N#Cc1ccc(Cn2cc(C=C3C(=O)NC(=S)NC3=O)c3cccnc32)cc1 ... 94.5
9. COc1ccc2c(c1)c(C=C1C(=O)NC(=S)NC1=O)c(C)n2Cc1cccc2ccccc12 ... 91

* * *

Target: hpol κ (Homo sapiens)
Sequence (Q9UBT6 19-526): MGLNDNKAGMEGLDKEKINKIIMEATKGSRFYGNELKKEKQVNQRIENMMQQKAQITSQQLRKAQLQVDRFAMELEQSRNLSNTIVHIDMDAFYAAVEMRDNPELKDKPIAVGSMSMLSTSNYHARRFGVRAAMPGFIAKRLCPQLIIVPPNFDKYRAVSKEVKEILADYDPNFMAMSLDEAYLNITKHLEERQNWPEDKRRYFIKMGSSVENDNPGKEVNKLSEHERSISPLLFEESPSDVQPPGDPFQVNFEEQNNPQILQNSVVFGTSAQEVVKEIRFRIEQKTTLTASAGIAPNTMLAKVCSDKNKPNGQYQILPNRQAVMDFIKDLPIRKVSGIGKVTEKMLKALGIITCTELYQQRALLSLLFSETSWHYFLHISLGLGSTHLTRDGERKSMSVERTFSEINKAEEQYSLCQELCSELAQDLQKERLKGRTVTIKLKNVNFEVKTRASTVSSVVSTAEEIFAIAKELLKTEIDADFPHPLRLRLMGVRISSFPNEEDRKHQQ
Assay: Fluorescence-based (TAMRA/BHQ strand displacement) DNA polymerase activity assay
We label by threshold. Values of IC50 strictly beneath 40 µM are 1. Values of 40 µM and up are 0.

1) Cc1c(/C=N/NC(=N)N)c2ccccc2n1C(=O)c1cccc2ccccc12 ... 0
2) N=C(N)N/N=C/c1cn(Cc2cccc3ccccc23)c2ccc(Cl)cc12 ... 1
3) COc1ccc2c(c1)c(/C=N/NC(=N)N)cn2C(=O)c1cccc2ccccc12 ... 0
4) COc1ccc2c(c1)c(/C=N/NC(=N)N)cn2Cc1ccc2ccccc2c1 ... 0
5) N=C(N)N/N=C/c1cn(Cc2ccc3ccccc3c2)c2ccccc12 ... 0
6) N=C(N)N/N=C/c1cn(C(=O)c2ccc3ccccc3c2)c2ccc(Cl)cc12 ... 1

* * *

Target: UniProt:Q9UBT6
Experiment: Fluorescence-based (TAMRA/BHQ strand displacement) DNA polymerase activity assay
Details: read-out: IC50 for inhibition of hpol κ; 10 nM DNA; 95% confidence interval in parentheses
reported.endpoint: IC50 (µM)

1) Cl.[H]/N=C(\N)NN=Cc1cn(C(=O)c2cccc3ccccc23)c2ccc(Cl)cc12 [IAG-10, hydrochloride] ... 8.9

* * *

Target: hpol κ (Homo sapiens, UniProt Q9UBT6)
Assay: Fluorescence-based (TAMRA/BHQ strand displacement) DNA polymerase activity assay
Conditions: read-out: IC50 for inhibition of hpol κ; 25 nM DNA; 95% confidence interval in parentheses
pIC50: −log10 of the molar value.
reported.endpoint: pIC50

1. Cl.[H]/N=C(\N)NN=Cc1cn(C(=O)c2cccc3ccccc23)c2ccc(Cl)cc12 [IAG-10, hydrochloride] ... 5.05

* * *

Biological target: UniProt Q9UBT6
Test: Fluorescence-based (TAMRA/BHQ strand displacement) DNA polymerase activity assay
Settings: read-out: % Activity Mean (hpol κ activity)
reported.endpoint: activity at 40 µM (%)

1. Cc1c(C=C2C(=O)N(C)C(=O)N(C)C2=O)c2cc(Cl)ccc2n1Cc1cccc2ccccc12 [IBA-3] ... 111
2. Cc1c(/C=N/NC(=N)N)c2ccccc2n1C(=O)c1cccc2ccccc12 [IAG-1] ... 105
3. Cc1c(C=C2C(=O)NC(=S)NC2=O)c2ccccc2n1C(=O)c1ccc2ccccc2c1 [IBA-18] ... 93.5
4. COc1ccc2c(c1)c(C=C1C(=O)N(C)C(=O)N(C)C1=O)c(C)n2Cc1cccc2ccccc12 [IBA-2] ... 114
5. O=C1NC(=S)NC(=O)C1=Cc1cn(Cc2ccc3ccccc3c2)c2ncc(Cl)cc12 [IBA-28] ... 84.4
6. O=C1NC(=S)NC(=O)C1=Cc1cn(C(=O)c2ccc3ccccc3c2)c2ccccc12 [IBA-30] ... 81.4
7. O=C1NC(=S)NC(=O)C1=Cc1cn(Cc2cccc3ccccc23)c2ccc(Cl)cc12 [IBA-6] ... 108
8. Cc1c(C=C2C(=O)NC(=S)NC2=O)c2cc(Cl)ccc2n1Cc1cccc2ccccc12 [IBA-11] ... 99.1

* * *

Biological target: hpol κ (Homo sapiens)
Sequence (Q9UBT6 19-526): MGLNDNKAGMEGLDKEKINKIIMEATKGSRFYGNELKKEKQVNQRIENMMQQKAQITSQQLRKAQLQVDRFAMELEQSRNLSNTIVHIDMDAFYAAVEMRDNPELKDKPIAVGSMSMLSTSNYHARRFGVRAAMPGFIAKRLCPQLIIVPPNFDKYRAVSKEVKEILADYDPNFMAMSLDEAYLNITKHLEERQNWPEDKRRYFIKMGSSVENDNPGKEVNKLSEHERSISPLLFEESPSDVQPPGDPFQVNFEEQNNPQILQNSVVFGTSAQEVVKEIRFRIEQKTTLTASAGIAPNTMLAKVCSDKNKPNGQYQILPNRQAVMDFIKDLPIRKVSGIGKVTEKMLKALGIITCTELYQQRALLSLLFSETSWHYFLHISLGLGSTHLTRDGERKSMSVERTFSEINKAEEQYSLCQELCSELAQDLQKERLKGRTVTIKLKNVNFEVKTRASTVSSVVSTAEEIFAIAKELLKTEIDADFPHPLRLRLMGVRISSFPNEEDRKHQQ
Assay: Fluorescence-based (TAMRA/BHQ strand displacement) DNA polymerase activity assay
Conditions: read-out: % Activity Mean (hpol κ activity)
Classify by measured activity at 40 µM: Y if it is equal to or exceeds 90%, N if it is smaller.

1. N=C(N)N/N=C/c1cn(C(=O)c2ccc3ccccc3c2)c2ccc(Cl)cc12 ... N
2. COc1ccc2c(c1)c(/C=N/NC(=N)N)cn2C(=O)c1cccc2ccccc12 ... Y
3. N=C(N)N/N=C/c1cn(Cc2cccc3ccccc23)c2ccc(Br)cc12 ... N
4. Cc1c(C=C2C(=O)NC(=O)NC2=O)c2ccccc2n1Cc1ccc(Br)cc1 ... Y
5. N=C(N)N/N=C/c1cn(Cc2ccc3ccccc3c2)c2ccccc12 ... Y
6. O=C1NC(=S)NC(=O)C1=Cc1cn(C(=O)c2cccc3ccccc23)c2ccc(Cl)cc12 ... N
7. COc1ccc(Cn2cc(C=C3C(=O)NC(=O)NC3=O)c3cccnc32)cc1 ... Y
8. O=C1NC(=O)C(=Cc2cn(Cc3ccc4ccccc4c3)c3ccc(Cl)cc23)C(=O)N1 ... N

* * *

activity at 40 µM values by entry
Target: UniProt Q9UBT6
Assay: Fluorescence-based (TAMRA/BHQ strand displacement) DNA polymerase activity assay
Settings: read-out: % Activity Mean (hpol κ activity)
reported.endpoint: activity at 40 µM (%)

1. Cc1c(C=C2C(=O)NC(=S)NC2=O)c2ccccc2n1C(=O)c1cccc2ccccc12 [IBA-26] ... 86.4
2. COc1ccc(Cn2cc(C=C3C(=O)NC(=S)NC3=O)c3cccnc32)cc1 [IBA-15] ... 95.1
3. O=C1NC(=O)C(=Cc2cn(Cc3cccc(C(F)(F)F)c3)c3ncccc23)C(=O)N1 [IBA-9] ... 103
4. O=C1NC(=S)NC(=O)C1=Cc1cn(Cc2ccc3ccccc3c2)c2ccc(Cl)cc12 [IBA-32] ... 56.5
5. O=C1NC(=O)C(=Cc2cn(Cc3cccc4ccccc34)c3ncc(Cl)cc23)C(=O)N1 [IBA-8] ... 103
6. O=C1NC(=S)NC(=O)C1=Cc1cn(Cc2cccc3ccccc23)c2ncc(Cl)cc12 [IBA-5] ... 109
